The reported numbers originate from the supplement of paper PMC9112550.

The entries below are paired with their reported shrunken log2 fold change.
Test system: Escherichia coli TOP10
Assay: shrunken log2 fold change of peptide-encoding DNA abundance (4.5 h post-induction vs induction); higher = less antimicrobial activity (less host growth inhibition)
Conditions: time post-induction: 4.5 h; library: site-saturation at positions 5, 18, 19, 20
Write the number on its own, no unit after it.

Solved cases (8 shown):
RRIRIRPPRLPRPRPRPHAHPRP | -0.554
RRIRSRPPRLPRPRPRPRPQPRP | 0.72
RRIRFRPPRLPRPRPRPKQVPRP | -0.176
RRIRDRPPRLPRPRPRPTFVPRP | 0.177
RRIRDRPPRLPRPRPRPHRFPRP | 0.0062
RRIRSRPPRLPRPRPRPRCQPRP | 0.0737
RRIRVRPPRLPRPRPRPFLGPRP | -0.0486
RRIRCRPPRLPRPRPRPKETPRP | -0.0766

For the next question, use this sequence.
Challenge: # input sequence: `RRIRCRPPRLPRPRPRPCMVPRP` ; wanted: its shrunken log2 fold change
Response given: -0.587

###

Test system: Escherichia coli TOP10
Test: shrunken log2 fold change of peptide-encoding DNA abundance (4.5 h post-induction vs induction); higher = less antimicrobial activity (less host growth inhibition)
Details: time post-induction: 4.5 h; library: site-saturation at positions 5, 18, 19, 20
The entries below come with measured shrunken log2 fold change values attached.
Give your answer as a number; write no unit.

The examples below pair each entry with its known result.
RRIRVRPPRLPRPRPRPYMAPRP | -0.629
RRIRERPPRLPRPRPRPLSWPRP | 0.04
RRIRMRPPRLPRPRPRPTEEPRP | -0.000967
RRIRDRPPRLPRPRPRPNNTPRP | -0.747
RRIRKRPPRLPRPRPRPFALPRP | 0.186

Kindly review the next sequence as well.
Challenge: What shrunken log2 fold change value was documented for this sequence, `RRIRWRPPRLPRPRPRPQMYPRP` ?
Response given: -0.168

###

sequences and their reported shrunken log2 fold change
System: Escherichia coli TOP10
Assay: shrunken log2 fold change of peptide-encoding DNA abundance (4.5 h post-induction vs induction); higher = less antimicrobial activity (less host growth inhibition)
Settings: time post-induction: 4.5 h; library: site-saturation at positions 5, 18, 19, 20
Field format: numeric only.

Completed entries (count: 2):
RRIRHRPPRLPRPRPRPLVYPRP | -0.0877
RRIRFRPPRLPRPRPRPDSVPRP | -0.54

Challenge: Give shrunken log2 fold change (Escherichia coli TOP10) of the following sequence: `RRIRVRPPRLPRPRPRPWSSPRP`
Response given: -1.19

Challenge: Form field: shrunken log2 fold change recorded for `RRIRWRPPRLPRPRPRPGKIPRP` with Escherichia coli TOP10 (enter value)
Response given: 0.159

Challenge: Which shrunken log2 fold change is reported with Escherichia coli TOP10 for this entry: `RRIRWRPPRLPRPRPRPLKSPRP` ?
Response given: 0.183

Challenge: Request: shrunken log2 fold change, test system Escherichia coli TOP10, entry `RRIRVRPPRLPRPRPRPNVGPRP`
Response given: 0.00661

Challenge: Request: shrunken log2 fold change, test system Escherichia coli TOP10, entry `RRIRVRPPRLPRPRPRPKQGPRP`
Response given: 0.0222

Challenge: Param readout = shrunken log2 fold change; param system = Escherichia coli TOP10; param query = `RRIRRRPPRLPRPRPRPAVWPRP` ; response: value
Response given: 0.399

Challenge: Checklist item: shrunken log2 fold change tested on Escherichia coli TOP10, entry `RRIRTRPPRLPRPRPRPQTRPRP` , value?
Response given: 0.145

Challenge: Please tell me: shrunken log2 fold change of `RRIRERPPRLPRPRPRPIHHPRP` , system Escherichia coli TOP10?
Response given: -0.7

Challenge: Query shrunken log2 fold change on Escherichia coli TOP10 for `RRIRLRPPRLPRPRPRPSYPPRP`
Response given: -0.472

Challenge: Find shrunken log2 fold change (Escherichia coli TOP10) for the entry `RRIRPRPPRLPRPRPRPIRHPRP`
Response given: -0.146

Challenge: Any idea what shrunken log2 fold change came out for `RRIRGRPPRLPRPRPRPKAMPRP` on Escherichia coli TOP10?
Response given: 0.147

Challenge: // fetch Escherichia coli TOP10 shrunken log2 fold change for `RRIRFRPPRLPRPRPRPRWEPRP`
Response given: 0.025

Challenge: Field: shrunken log2 fold change (Escherichia coli TOP10). Entry: `RRIRCRPPRLPRPRPRPAGDPRP`
Response given: 0.176

Challenge: API: value(readout=shrunken log2 fold change, system=Escherichia coli TOP10) for record `RRIRGRPPRLPRPRPRPPMDPRP`
Response given: 0.597

Challenge: Test system Escherichia coli TOP10; read-out shrunken log2 fold change; what value for `RRIRDRPPRLPRPRPRPPPQPRP` ?
Response given: 0.775

###

System: Escherichia coli TOP10
Assay: shrunken log2 fold change of peptide-encoding DNA abundance (4.5 h post-induction vs induction); higher = less antimicrobial activity (less host growth inhibition)
Conditions: time post-induction: 4.5 h; library: site-saturation at positions 5, 18, 19, 20
Value kind: shrunken log2 fold change

The cases that follow already have their shrunken log2 fold change on record.
RRIRKRPPRLPRPRPRPSVAPRP | 0.394
RRIRRRPPRLPRPRPRPKFGPRP | 0.172

// next entry
Challenge: State the recorded shrunken log2 fold change for this entry: `RRIRYRPPRLPRPRPRPDSNPRP`
Response given: -2.93

###

Test system: Escherichia coli TOP10
Assay: shrunken log2 fold change of peptide-encoding DNA abundance (4.5 h post-induction vs induction); higher = less antimicrobial activity (less host growth inhibition)
Settings: time post-induction: 4.5 h; library: site-saturation at positions 5, 18, 19, 20
Think of 0.008 as a floor: if shrunken log2 fold change stands on it or above, it is Satisfied; beneath it, Not satisfied.

Some solved entries appear below for comparison.
RRIRIRPPRLPRPRPRPICRPRP | Not satisfied
RRIRWRPPRLPRPRPRPAYPPRP | Satisfied
RRIRCRPPRLPRPRPRPNLHPRP | Not satisfied

Challenge: Reported shrunken log2 fold change at or above 0.008? `RRIRTRPPRLPRPRPRPPTGPRP`
Response given: Satisfied

Challenge: Does the sequence `RRIRRRPPRLPRPRPRPHEFPRP` have recorded shrunken log2 fold change that is 0.008 or more?
Response given: Satisfied

###

System: Escherichia coli TOP10;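 note: peptides expressed intracellularly from a pBAD plasmid library in pooled LB shake-flask culture, induced with 0.3% L-arabinose, DNA abundance read by NGS, three biological replicates, DESeq2 with apeglm shrinkage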
Assay: shrunken log2 fold change of peptide-encoding DNA abundance (4.5 h post-induction vs induction); higher = less antimicrobial activity (less host growth inhibition)
Conditions: time post-induction: 4.5 h; library: site-saturation at positions 5, 18, 19, 20
Lab note: class by shrunken log2 fold change, see Low: < -0.08; Mid: ≥ -0.08 and < 0.1; High: ≥ 0.1

Please review the following examples before continuing.
RRIRLRPPRLPRPRPRPLYMPRP | Low
RRIRQRPPRLPRPRPRPYRVPRP | Mid

Challenge: Which shrunken log2 fold change category applies to `RRIRIRPPRLPRPRPRPRACPRP` here?
Response given: Low

Challenge: Given `RRIRARPPRLPRPRPRPEQRPRP` , name the class its shrunken log2 fold change places it in.
Response given: High

Challenge: // return the class label for `RRIRHRPPRLPRPRPRPYMHPRP`
Response given: Low

Challenge: Class? Entry: `RRIRPRPPRLPRPRPRPWLCPRP`
Response given: High

Challenge: Lab note: which band did `RRIRLRPPRLPRPRPRPMQKPRP` land in?
Response given: Mid

Challenge: Record `RRIRDRPPRLPRPRPRPWELPRP` — which class?
Response given: High

Challenge: # classify by shrunken log2 fold change band: `RRIRMRPPRLPRPRPRPTKNPRP`
Response given: High

Challenge: The entry to classify is `RRIRFRPPRLPRPRPRPKLPPRP` ; which class holds it?
Response given: High

Challenge: Which bin, given its shrunken log2 fold change, does `RRIRNRPPRLPRPRPRPENLPRP` occupy?
Response given: Mid

Challenge: Please let me know in which category the item `RRIRRRPPRLPRPRPRPQNIPRP` belongs.
Response given: Low

Challenge: State the class of the sequence shown: `RRIRSRPPRLPRPRPRPESSPRP`
Response given: Mid

Challenge: # bin lookup: classify `RRIRSRPPRLPRPRPRPQDAPRP` by its shrunken log2 fold change
Response given: Mid

Challenge: Could you tell me which band `RRIRGRPPRLPRPRPRPQEPPRP` belongs to?
Response given: High

Challenge: # classify by shrunken log2 fold change band: `RRIRFRPPRLPRPRPRPPIKPRP`
Response given: Mid

Challenge: Given `RRIRARPPRLPRPRPRPGQDPRP` , name the class its shrunken log2 fold change places it in.
Response given: High

Challenge: The entry to classify is `RRIRTRPPRLPRPRPRPDVGPRP` ; which class holds it?
Response given: Mid

Challenge: Sort `RRIRNRPPRLPRPRPRPWEDPRP` into one of the categories.
Response given: Low

Challenge: Category of `RRIRFRPPRLPRPRPRPYSRPRP` :
Response given: Low
